assay: Stability test in buffer (pH 7.4); format: physicochemical; settings: phosphate buffer/acetonitrile 7:3; 10 minutes at 37°C, 100 mM potassium phosphate buffer (pH 7.4) and acetonitrile 7:3 (v/v), LC/MS; read-out: Buf. remaining rate (%/10min)
parameterMeasured: remaining at 10 min (%)
Field format: number, assumed %, no unit text.

remaining at 10 min for COC(=O)c1cc(Cl)c(OC(=O)CCCc2ccc(NC(=O)c3ccc(C)nc3-c3ccc(C(F)(F)F)cc3)c(C(=O)N(C)C)c2)c(OC)c1 [Compound 1-36] is 100

remaining at 10 min for CCOC(=O)c1cc(C)c(OC(=O)CCCc2ccc(NC(=O)c3ccc(C)nc3-c3ccc(C(F)(F)F)cc3)c(C(=O)N(C)C)c2)c(Cl)c1 [Compound 1-112] is 99

remaining at 10 min for COC(=O)c1ccc(-c2nc(C)ccc2C(=O)Nc2ccc(CCCC(=O)Oc3c(C)cc(C(=O)OC)cc3C(=O)OC)cc2C(=O)N(C)C)cc1 [Compound 4-2] is 98

remaining at 10 min for CC(C)OC(=O)c1ccc(OC(=O)CCCc2ccc(NC(=O)c3ccncc3-c3ccc(C(F)(F)F)cc3)c(C(=O)N(C)C)c2)cc1 [Compound 1-29] is 98

remaining at 10 min for COC(=O)c1ccc(OC(=O)CCCc2ccc(NC(=O)c3ccc(C)nc3-c3ccc(C(F)(F)F)cc3)c(C(=O)N(C)C)c2)c(C(=O)OC)c1 [Compound 1-70] is 101

remaining at 10 min for CCOC(=O)c1ccc(OC(=O)CCCc2ccc(NC(=O)c3ccc(C)nc3-c3ccc(C(F)(F)F)cc3)c(C(=O)N(C)C)c2)cc1 [Compound 1-71] is 102

remaining at 10 min for COc1cc(C(=O)OCC(=O)N(C)C)cc(Cl)c1OC(=O)CCCc1ccc(NC(=O)c2ccc(C)nc2-c2ccc(C(F)(F)F)cc2)c(C(=O)N(C)C)c1 [Compound 1-113] is 103

remaining at 10 min for Cc1cccc(COC(=O)c2ccc(OC(=O)CCCc3ccc(NC(=O)c4ccccc4-c4ccc(C(F)(F)F)cc4)c(C(=O)N(C)C)c3)cc2)n1 [Compound 1-101] is 100

Then this molecule:
remaining at 10 min for Cc1ccc(C(=O)Nc2ccc(CCCC(=O)Oc3ccc(C(=O)OCc4cccnc4)cc3)cc2C(=O)N(C)C)c(-c2ccc(C(F)(F)F)cc2)n1 [Compound 1-94] is 99

* * *

assay: Metabolic stability test in plasma; format: in vitro ADME, human; settings: unchanged form after 10 minutes at 37°C in human plasma, LC/MS; read-out: Remaining rate in human plasma (%/10min)
parameterMeasured: remaining at 10 min (%)
Field format: number, assumed %, no unit text.

remaining at 10 min for CCc1cc(C(=O)OC)ccc1OC(=O)CCCc1ccc(NC(=O)c2ccccc2-c2ccc(C(F)(F)F)cc2)c(C(=O)N(C)C)c1 [Compound 1-67] is 77

remaining at 10 min for CC(=O)NCCOC(=O)c1ccc(OC(=O)CCCc2ccc(NC(=O)c3ccccc3-c3ccc(C(F)(F)F)cc3)c(C(=O)N(C)C)c2)cc1 [Compound 1-77] is 59

remaining at 10 min for CC(C)OC(=O)c1ccc(OC(=O)CCCc2ccc(NC(=O)c3ccncc3-c3ccc(C(F)(F)F)cc3)c(C(=O)N(C)C)c2)cc1 [Compound 1-29] is 41

remaining at 10 min for COc1cc(C(=O)OC(C)C)cc(Cl)c1OC(=O)CCCc1ccc(NC(=O)c2ccc(C)nc2-c2ccc(C(F)(F)F)cc2)c(C(=O)N(C)C)c1 [Compound 1-37] is 0

remaining at 10 min for CCc1cc(C(=O)OC)cc(F)c1OC(=O)CCCc1ccc(NC(=O)c2ccc(C)nc2-c2ccc(C(F)(F)F)cc2)c(C(=O)N(C)C)c1 [Compound 1-42] is 52

remaining at 10 min for CN(C)C(=O)c1cc(CCCC(=O)Oc2ccc(C(=O)OCc3cccc(Cl)c3)cc2)ccc1NC(=O)c1ccccc1-c1ccc(C(F)(F)F)cc1 [Compound 1-87] is 60
